target: human calcitonin receptor (CTR) and RAMP3 (AMY3) (Homo sapiens, UniProt O60896+P30988); assay: Amylin Receptor cAMP Assay II; type: cell-based; conditions: COS-7/AMY3 cells, cAMP dynamic 2 kit, read-out: Amylin Receptor cAMP Stimulation Activity: EC50
Sequence (O60896 24-148): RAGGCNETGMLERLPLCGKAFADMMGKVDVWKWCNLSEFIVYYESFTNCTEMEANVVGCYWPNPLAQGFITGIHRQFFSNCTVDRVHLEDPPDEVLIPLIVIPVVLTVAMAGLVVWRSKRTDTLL
Sequence (P30988 25-474): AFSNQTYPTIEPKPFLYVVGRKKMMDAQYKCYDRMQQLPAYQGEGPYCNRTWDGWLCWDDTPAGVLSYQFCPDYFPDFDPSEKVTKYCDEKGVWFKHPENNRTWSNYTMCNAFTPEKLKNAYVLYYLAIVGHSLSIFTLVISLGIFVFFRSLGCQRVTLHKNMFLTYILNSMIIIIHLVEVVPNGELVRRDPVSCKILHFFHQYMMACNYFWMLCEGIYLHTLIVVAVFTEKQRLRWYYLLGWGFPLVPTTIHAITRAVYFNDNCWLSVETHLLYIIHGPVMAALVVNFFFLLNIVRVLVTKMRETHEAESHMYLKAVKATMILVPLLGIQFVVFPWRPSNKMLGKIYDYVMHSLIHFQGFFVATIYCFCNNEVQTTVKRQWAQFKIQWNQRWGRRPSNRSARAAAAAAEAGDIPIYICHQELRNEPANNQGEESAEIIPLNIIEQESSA
MEASURE_NAME: EC50 (µM)

compound="COc1noc(-c2c(CCC3CCOCC3)nc3c(c2-c2cc4ccnc(N[C@@H]5CCc6ncccc65)c4s2)S(=O)(=O)CC3C(C)C)n1 (stereo partly drawn)" recorded_measurement=0.272
compound="COc1cccc2c1CC[C@H]2Nc1nccc2cc(-c3c(-c4nnc(C)o4)c(CCC4CCOCC4)nc4c3S(=O)(=O)CC4C(C)C)sc12 (stereo partly drawn)" recorded_measurement=0.427
compound="CC(C)C1CS(=O)(=O)c2c1nc(CCC1CCOCC1)c(-c1nnc[nH]1)c2-c1cc2ccnc(N[C@@H]3CCc4ncccc43)c2s1 (stereo partly drawn)" recorded_measurement=0.0683
compound="Cc1nnc(-c2c(CCC3CC(C)OC(C)C3)nc3c(c2-c2cc4ccnc(N[C@@H]5CCc6ncccc65)c4s2)S(=O)(=O)CC3C(C)C)o1 (stereo partly drawn)" recorded_measurement=0.309

(I) Cc1nnc(-c2c(CCC3CCOCC3)nc3c(c2-c2cc4ncnc(N[C@@H]5CCc6ncccc65)c4s2)S(=O)(=O)CC3C(C)C)o1 (stereo partly drawn)
(II) Cc1nnc(-c2c(CCC34CCC(CC3)OC4)nc3c(c2-c2cc4ccnc(N[C@@H]5CCc6ncccc65)c4s2)c(=O)n2n3CCC2)o1
Select the item whose EC50 value is smaller, choosing between I and II . Write the label of whichever entry you select.
II
(II: 0.18 µM, I: 0.587 µM)
